Each entry below carries its recorded pest or weed control at 250 g/ha.
- System: Echinochloa crus-galli (ECHCG)
- experimentDescription: Pre-emergence herbicidal activity, glasshouse pot test
- Type: in vivo
- conditionLabel: 312 h, Rate 250 g/ha, sprayed one day after sowing, evaluated after 13 days, 100=total damage to plant, 0=no damage to plant
// note: answer is a bare numeric in %

>>> df
                                   molecule                         parameter  unitabbreviation  recordedvalue
0  CCc1ccc(-c2ccc(Cl)cc2)cc1C1=C(O)C2CSCC2C1=O (centres unmarked)  pest or weed control at 250 g/ha                 %             70

The value of pest or weed control at 250 g/ha recorded for CCc1ccc(-c2ccc(Cl)c(C)c2)cc1C1=C(O)CCC1=O when tested on Echinochloa crus-galli (ECHCG) reads 0

The value of pest or weed control at 250 g/ha recorded for CCc1ccc(-c2c(F)cc(Cl)cc2F)cc1C1=C(O)CCC1=O when tested on Echinochloa crus-galli (ECHCG) reads 0

The value of pest or weed control at 250 g/ha recorded for CCc1ccc(-c2ccc(C(F)(F)F)cc2)cc1C1=C(O)CCC1=O when tested on Echinochloa crus-galli (ECHCG) reads 50

The value of pest or weed control at 250 g/ha recorded for CCc1ccc(-c2ccc(Cl)c(OC)c2)cc1C1=C(O)CCC1=O when tested on Echinochloa crus-galli (ECHCG) reads 60

====

- Test system: Lolium perenne (LOLPE)
- experimentDescription: Post-emergence herbicidal activity, glasshouse pot test
- Assay type: in vivo
- conditionLabel: 312 h, rate 250 g/ha, evaluated after 13 days, read-out: Post-emergence activity, LOLPE (100=total damage to plant; 0=no damage to plant)
Each entry below carries its recorded pest or weed control at 250 g/ha.
// note: answer is a bare numeric in %

                                   molecule                         parameter  unitabbreviation  recordedvalue
0  CCc1ccc(-c2ccc(Cl)c(C(F)(F)F)c2)cc1C1=C(O)CCC1=O [Compound T-8]  pest or weed control at 250 g/ha                 %             60

Now for a further molecule.
Entry CCc1ccc(-c2ccc(Cl)c(C)c2)cc1C1=C(O)CCC1=O [Compound T-15] ; pest or weed control at 250 g/ha = 30

====

Each entry below carries its recorded pest or weed control at 250 g/ha.
- System: Lolium perenne (LOLPE)
- experimentDescription: Post-emergence herbicidal activity, glasshouse pot test
- Format: in vivo
- conditionLabel: 312 h, rate 250 g/ha, evaluated after 13 days, read-out: Post-emergence activity, LOLPE (100=total damage to plant; 0=no damage to plant)
- Method: Seeds of a variety of test species were sown in standard soil in pots. […] After 13 days for pre and post-emergence, the test was evaluated (100=total damage to plant; 0=no damage to plant). […]
// note: answer is a bare numeric in %

The following molecules have reported results that may help.
In [3]: df
Out[3]:
                                   molecule            testedsystem  recordedvalue
0  CCc1ccc(-c2cc(F)c(Cl)c(F)c2)cc1C1=C(O)CCC1=O [Compound T-21]  Lolium perenne (LOLPE)             30
1  CCc1ccc(-c2ccc(Cl)c(OC)c2)cc1C1=C(O)CCC1=O [Compound T-6]  Lolium perenne (LOLPE)             60
2  CCc1ccc(-c2ccc(Cl)c(F)c2)cc1C1=C(O)CCC1=O [Compound T-9]  Lolium perenne (LOLPE)             60

The value of pest or weed control at 250 g/ha recorded for CCc1ccc(-c2ccc3ccccc3c2)cc1C1=C(O)CCC1=O [Compound T-7] when tested on Lolium perenne (LOLPE) reads 30

The value of pest or weed control at 250 g/ha recorded for CCc1ccc(-c2cc(Cl)c(F)cc2F)cc1C1=C(O)CCC1=O [Compound T-22] when tested on Lolium perenne (LOLPE) reads 10

The value of pest or weed control at 250 g/ha recorded for CCc1ccc(-c2ccc(Cl)cc2Cl)cc1C1=C(O)CCC1=O [Compound T-14] when tested on Lolium perenne (LOLPE) reads 30

The value of pest or weed control at 250 g/ha recorded for CCc1ccc(-c2ccc(Cl)c(Cl)c2)cc1C1=C(O)CCC1=O [Compound T-5] when tested on Lolium perenne (LOLPE) reads 50

The value of pest or weed control at 250 g/ha recorded for CCc1ccc(-c2ccc(Cl)c(Cl)c2F)cc1C1=C(O)CCC1=O [Compound T-13] when tested on Lolium perenne (LOLPE) reads 40

The value of pest or weed control at 250 g/ha recorded for CCc1ccc(-c2ccc(Cl)c(F)c2Cl)cc1C1=C(O)CCC1=O [Compound T-11] when tested on Lolium perenne (LOLPE) reads 50

The value of pest or weed control at 250 g/ha recorded for CCc1ccc(-c2ccc(Cl)c(Cl)c2Cl)cc1C1=C(O)CCC1=O [Compound T-20] when tested on Lolium perenne (LOLPE) reads 20

====

- Test system: Echinochloa crus-galli (ECHCG)
- experimentDescription: Pre-emergence herbicidal activity, glasshouse pot test
- Format: in vivo
- conditionLabel: 312 h, Rate 250 g/ha, sprayed one day after sowing, evaluated after 13 days, 100=total damage to plant, 0=no damage to plant
Each entry below carries its recorded pest or weed control at 250 g/ha.
// note: answer is a bare numeric in %

Entry CCc1ccc(-c2cc(F)c(Cl)c(F)c2)cc1C1=C(O)CCC1=O [Compound T-21] ; pest or weed control at 250 g/ha = 40

Entry CCc1ccc(-c2ccc(F)cc2)cc1C1=C(O)CCC1=O [Compound T-17] ; pest or weed control at 250 g/ha = 80

Entry CCc1ccc(-c2ccc(Cl)cc2)cc1C1=C(O)CCC1=O [Compound T-1] ; pest or weed control at 250 g/ha = 100

Entry CCc1ccc(-c2cc(Cl)c(Cl)cc2Cl)cc1C1=C(O)CCC1=O [Compound T-16] ; pest or weed control at 250 g/ha = 50

====

- System: Echinochloa crus-galli (ECHCG)
- experimentDescription: Pre-emergence herbicidal activity, glasshouse pot test
- Type: in vivo
- conditionLabel: 312 h, Rate 250 g/ha, sprayed one day after sowing, evaluated after 13 days, 100=total damage to plant, 0=no damage to plant
Where pest or weed control at 250 g/ha equals or exceeds 50%, the correct label is yes; where it does not, the label is no.

// known answers, use as guide
                       smilesrepresentation  labelclass
0  CCc1ccc(-c2ccc(Cl)c(Cl)c2Cl)cc1C1=C(O)CCC1=O          no
1  CCc1ccc(-c2ccc(Cl)c(Cl)c2)cc1C1=C(O)CCC1=O          no
2  CCc1ccc(-c2ccc(Cl)c(F)c2)cc1C1=C(O)CCC1=O         yes
3  O=C1CCC(O)=C1c1cc(-c2ccc(Cl)cc2Cl)ccc1C1CC1         yes
4  CCc1ccc(-c2ccc(Cl)c(Cl)c2F)cc1C1=C(O)CCC1=O          no

For this molecule, is measured pest or weed control at 250 g/ha 50% or higher? CCc1ccc(-c2ccc(Cl)c(C(F)(F)F)c2)cc1C1=C(O)CCC1=O
yes

====

- Tested on: Echinochloa crus-galli (ECHCG)
- experimentDescription: Pre-emergence herbicidal activity, glasshouse pot test
- Type: in vivo
- conditionLabel: 312 h, Rate 250 g/ha, sprayed one day after sowing, evaluated after 13 days, 100=total damage to plant, 0=no damage to plant
parameter: pest or weed control at 250 g/ha (%)
// note: answer is a bare numeric in %

The following compounds have reported results that may help.
In [3]: df
Out[3]:
                       smilesrepresentation  recordedvalue
0  CCc1ccc(-c2cc(Cl)c(F)cc2F)cc1C1=C(O)CCC1=O             30
1  CCc1ccc(-c2ccc(Cl)c(F)c2F)cc1C1=C(O)CCC1=O             50
2  CCc1ccc(-c2ccc(Cl)c(C(F)(F)F)c2F)cc1C1=C(O)CCC1=O             10

Entry CCc1ccc(-c2ccc(Cl)cc2F)cc1C1=C(O)CCC1=O ; pest or weed control at 250 g/ha = 100

Entry CCc1ccc(-c2ccc3ccccc3c2)cc1C1=C(O)CCC1=O ; pest or weed control at 250 g/ha = 20

====

- Test system: Lolium perenne (LOLPE)
- experimentDescription: Post-emergence herbicidal activity, glasshouse pot test
- Format: in vivo
- conditionLabel: 312 h, rate 250 g/ha, evaluated after 13 days, read-out: Post-emergence activity, LOLPE (100=total damage to plant; 0=no damage to plant)
parameter: pest or weed control at 250 g/ha (%)
// note: answer is a bare numeric in %

>>> print(df.to_string())
                                   molecule            testedsystem                         parameter  recordedvalue
0  CCc1ccc(-c2ccc(F)cc2)cc1C1=C(O)CCC1=O [Compound T-17]  Lolium perenne (LOLPE)  pest or weed control at 250 g/ha             50

Entry CCc1ccc(-c2c(F)cc(Cl)cc2F)cc1C1=C(O)CCC1=O [Compound T-10] ; pest or weed control at 250 g/ha = 40

Entry CCc1ccc(-c2ccc(Cl)c(F)c2F)cc1C1=C(O)CCC1=O [Compound T-12] ; pest or weed control at 250 g/ha = 50

Entry CCc1ccc(-c2ccc(C(F)(F)F)cc2)cc1C1=C(O)CCC1=O [Compound T-18] ; pest or weed control at 250 g/ha = 70

Entry O=C1CCC(O)=C1c1cc(-c2ccc(Cl)cc2Cl)ccc1C1CC1 [Compound T-24] ; pest or weed control at 250 g/ha = 50

Entry CCc1ccc(-c2ccc(Cl)cc2F)cc1C1=C(O)CCC1=O [Compound T-3] ; pest or weed control at 250 g/ha = 40

Entry CCc1ccc(-c2ccc(Cl)cc2)cc1C1=C(O)C2CSCC2C1=O (stereo not shown) [Compound T-2] ; pest or weed control at 250 g/ha = 0

Each recorded value in this set is attributed to patent US8530388B2.
